Items are presented alongside their recorded EC50.
Target entity: Full-length (FL)-PRMT5-MEP50 enzyme complex (Homo sapiens, UniProt O14744)
Construct: Full-length (FL)-PRMT5-MEP50 enzyme complex (recombinant proteins from baculovirus-transfected Sf21 cells: FL-PRMT5; MW=73837 kDa and FL-MEP50; MW=38614); made in house; host or cells: baculovirus-transfected Sf21 insect cells
Sequence (O14744 whole entry): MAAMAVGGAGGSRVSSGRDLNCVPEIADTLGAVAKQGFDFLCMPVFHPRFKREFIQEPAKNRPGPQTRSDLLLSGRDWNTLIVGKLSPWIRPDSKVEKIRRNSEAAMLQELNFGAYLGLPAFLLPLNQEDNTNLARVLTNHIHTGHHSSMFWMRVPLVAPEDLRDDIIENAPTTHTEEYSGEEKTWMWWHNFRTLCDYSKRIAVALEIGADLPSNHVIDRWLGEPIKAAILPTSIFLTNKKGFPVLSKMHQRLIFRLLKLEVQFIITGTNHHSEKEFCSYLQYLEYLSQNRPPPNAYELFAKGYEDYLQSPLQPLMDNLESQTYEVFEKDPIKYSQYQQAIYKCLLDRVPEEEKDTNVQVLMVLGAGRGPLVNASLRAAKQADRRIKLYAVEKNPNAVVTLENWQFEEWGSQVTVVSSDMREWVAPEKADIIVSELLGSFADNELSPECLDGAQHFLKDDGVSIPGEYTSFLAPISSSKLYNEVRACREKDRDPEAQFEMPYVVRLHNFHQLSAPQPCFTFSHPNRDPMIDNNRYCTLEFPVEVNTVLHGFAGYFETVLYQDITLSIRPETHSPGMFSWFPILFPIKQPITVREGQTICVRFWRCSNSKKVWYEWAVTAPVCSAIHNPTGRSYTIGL
Sequence (Q9BQA1 whole entry partner): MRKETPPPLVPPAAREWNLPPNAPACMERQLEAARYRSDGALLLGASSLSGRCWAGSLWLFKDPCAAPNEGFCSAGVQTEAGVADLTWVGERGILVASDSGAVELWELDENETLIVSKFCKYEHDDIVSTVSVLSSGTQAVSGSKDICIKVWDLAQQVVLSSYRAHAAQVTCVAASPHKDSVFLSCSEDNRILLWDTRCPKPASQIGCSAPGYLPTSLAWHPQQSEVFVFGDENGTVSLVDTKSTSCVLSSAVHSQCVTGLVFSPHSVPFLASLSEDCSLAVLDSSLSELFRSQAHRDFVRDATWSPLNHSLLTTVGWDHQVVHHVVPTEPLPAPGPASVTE
Measurement notes: PRMT5-MEP50 Enzyme Methylation Assay
Type: biochemical
Experimental context: second EC50 of 7 parameters biphasic model; 1.0 nM PRMT5-MEP50, 75 nM biotinylated peptide, 15 μM SAM; read-out: Enzyme Methylation Assay (EC50 2)
Measured quantity: EC50 (nM)

Structure notation: Cc1ncnc2c1ccn2[C@@H]1O[C@@H]2[C@@H](Oc3ccc4cc(F)c(N)nc4c3)CC[C@]2(O)[C@H]1O
Target entity: Full-length (FL)-PRMT5-MEP50 enzyme complex (Homo sapiens, UniProt O14744)
Measured quantity: EC50
Result: 63.8

Structure notation: C[C@@]1(O)[C@@H](COc2ccc3cc(Br)c(N)nc3c2)O[C@@H](n2ccc3c(Cl)ncnc32)[C@@H]1O
Target entity: Full-length (FL)-PRMT5-MEP50 enzyme complex (Homo sapiens, UniProt O14744)
Measured quantity: EC50
Result: 501

Structure notation: Cc1ncnc2c1ccn2[C@@H]1O[C@@H]2[C@H](Oc3ccc4cc(Br)c(N)nc4c3)CC[C@]2(O)[C@H]1O
Target entity: Full-length (FL)-PRMT5-MEP50 enzyme complex (Homo sapiens, UniProt O14744)
Measured quantity: EC50
Result: 31600

Structure notation: C[C@]1(COc2ccc3cc(Br)c(N)nc3c2)O[C@@H](n2ccc3c(N)ncnc32)[C@H](O)[C@@H]1O
Target entity: Full-length (FL)-PRMT5-MEP50 enzyme complex (Homo sapiens, UniProt O14744)
Measured quantity: EC50
Result: 89

###

Target entity: Full-length (FL)-PRMT5-MEP50 enzyme complex (Homo sapiens, UniProt O14744)
Construct: Full-length (FL)-PRMT5-MEP50 enzyme complex (recombinant proteins from baculovirus-transfected Sf21 cells: FL-PRMT5; MW=73837 kDa and FL-MEP50; MW=38614); made in house; host or cells: baculovirus-transfected Sf21 insect cells
Measurement notes: PRMT5-MEP50 Enzyme Methylation Assay
Type: biochemical
Experimental context: second EC50 of 7 parameters biphasic model; 1.0 nM PRMT5-MEP50, 75 nM biotinylated peptide, 15 μM SAM; read-out: Enzyme Methylation Assay (EC50 2)
Method: PRMT5-MEP50 biochemical assay is a direct measurement of the methylation activity of the enzyme complex on a short peptide substrate derived from the N-terminus of H4 histone. Methylation experiment is performed with recombinant PRMT5-MEP50 protein complex. The assessment of inhibitory effect of small molecules is measured by the effectiveness of the compounds to inhibit this reaction (EC50). […]
Measured quantity: log10(EC50) (log10 of the value in µM)

Compound: Cc1ncnc2c1ccn2[C@@H]1C[C@@H]2[C@@H](Cc3ccc4cc(F)c(N)nc4c3)CC[C@]2(O)[C@H]1O [Example 18]
Result: -0.64

Compound: C[C@]1(O)[C@@H](O)[C@H](n2ccc3c(N)ncnc32)C[C@]1(O)CCc1ccc2cc(Br)c(N)nc2c1 [Example 118]
Result: 0.20

Compound: C[C@]1(COc2ccc3cc(Br)c(N)nc3c2)C[C@@H](n2ccc3c(N)ncnc32)[C@H](O)[C@]1(C)O [Example 111]
Result: 0.42

Compound: C[C@]1(COc2ccc3cc(Br)c(N)nc3c2)C[C@@H](n2ccc3c(N)ncnc32)[C@H](O)[C@@H]1O [Example 100]
Result: -1.49

Compound: C[C@]1(COc2ccc3cccnc3c2)O[C@@H](n2ccc3c(N)ncnc32)[C@H](O)[C@@H]1O [Example 98]
Result: 0.41

Compound: C[C@@]1(O)[C@@H](COc2ccc3cccnc3c2)O[C@@H](n2ccc3c(N)ncnc32)[C@@H]1O [Example 99]
Result: 0.27
